Consider the following sequences and their measured 5+ nucleoli phenotype percent effect readings.
Tested on: MCF10A
Assay: 5+ nucleoli phenotype percent effect (relative to siNT 0% and siKIF11 100%); higher = more cells with five or more nucleoli
Details: 20 nM; 72 h
Supply the numeric figure in %, leaving out any unit text.

Here is how some sequences turned out for 5+ nucleoli phenotype percent effect.
Which 5+ nucleoli phenotype percent effect value is on record for AAAACCGUCUAGUUACAGUUGU [hsa-miR-1537] ?
13.9

Any idea what 5+ nucleoli phenotype percent effect was measured for UAAUCCUUGCUACCUGGGUGAGA [hsa-miR-500a-5p] ?
-16.1

Further cases:
Given the entry CAGGAUCCACAGAGCUAGUCCA [hsa-miR-4661-3p] , report its measured 5+ nucleoli phenotype percent effect.
-16

Would you mind telling me what 5+ nucleoli phenotype percent effect value was observed for AUGCAGGCCUGUGUACAGCACU [hsa-miR-6811-5p] ?
-31.3

Quick check: 5+ nucleoli phenotype percent effect of ACAGGGAGGAGAUUGUA [hsa-miR-4441] ?
-15.6

Which 5+ nucleoli phenotype percent effect is reported for this sequence? ACUGGAAUUGGAGUCAAAA [hsa-miR-6128]
36.5

What 5+ nucleoli phenotype percent effect value was documented for this sequence, UCAUUUAUCUGUUGGGAAGCUA [hsa-miR-4729] ?
-14.5
